- TEST_DETAILS: gradient 5% acetonitrile 3 min, to 50% in 2 min, to 85% in 15 min, held 3 min, 100 µL/min
- MEASUREMENT_SETUP: column: Zorbax Extend-C18 2.1 x 50 mm; eluents: water / acetonitrile, 0.1% formic acid
# key: entry, value: RP-LC retention time
PROPERTY_LABEL: RP-LC retention time (s)

COMPOUND: Cc1cccc(NC(=O)C2CCN(S(=O)(=O)c3ccc4c(c3)NC(=O)C(C)O4)CC2)c1C (centres undefined)
OUTPUT_UNIT: s
RECORDED_NUMBER: 818

COMPOUND: CC(=O)C1=C(C)N(Cc2ccccc2)C(=O)C1(NC(=O)C1CCCCC1)C(F)(F)F (centres undefined)
OUTPUT_UNIT: s
RECORDED_NUMBER: 1020

COMPOUND: Cc1ccc(-c2nc(-n3c(C)c4c(C)nnc(C)c4c3C)sc2C)cc1C
OUTPUT_UNIT: s
RECORDED_NUMBER: 832

COMPOUND: CC(C)Cn1cnc2c(-c3ccc(F)cc3)csc2c1=O
OUTPUT_UNIT: s
RECORDED_NUMBER: 1030

COMPOUND: Cc1noc(C)c1CCC(=O)N1CCC(c2nc(C3CC3)n[nH]2)CC1
OUTPUT_UNIT: s
RECORDED_NUMBER: 564

COMPOUND: COc1cccc(N2CCN(c3ccnc(SCC(=O)Nc4cc(OC)ccc4OC)n3)CC2)c1
OUTPUT_UNIT: s
RECORDED_NUMBER: 818

COMPOUND: O=C(NCCc1cccs1)C1CCN(Cc2cc3ccccc3n2Cc2cccc(Cl)c2)CC1
OUTPUT_UNIT: s
RECORDED_NUMBER: 833

COMPOUND: Cc1cccc(NC(=O)C2CCN(S(=O)(=O)c3cc(C(=O)N4CCCC4)n(C)c3)CC2)n1
OUTPUT_UNIT: s
RECORDED_NUMBER: 653

COMPOUND: Cc1nn(C(C)C(=O)NCCCN2CCOCC2)c(=O)c2c(C)n(-c3ccccc3)nc12 (centres undefined)
OUTPUT_UNIT: s
RECORDED_NUMBER: 615

COMPOUND: COc1ccccc1CN1CCC(CNS(=O)(=O)c2ccc3c(c2)CCCC(=O)N3)CC1
OUTPUT_UNIT: s
RECORDED_NUMBER: 566

COMPOUND: O=C(Cn1nc(Cc2ccncc2)c2ccccc2c1=O)N1CCN(C(=O)c2ccco2)CC1
OUTPUT_UNIT: s
RECORDED_NUMBER: 582

COMPOUND: O=C(Nc1cnc(N2CCCC2)nc1)c1ccccc1C(F)(F)F
OUTPUT_UNIT: s
RECORDED_NUMBER: 740

COMPOUND: O=C1CN(S(=O)(=O)c2ccc([N+](=O)[O-])cc2)c2ccccc2N1
OUTPUT_UNIT: s
RECORDED_NUMBER: 738

COMPOUND: O=C(Nc1ccc2c(c1)OCO2)c1cn(-c2cc(N3CCCCC3)ncn2)cn1
OUTPUT_UNIT: s
RECORDED_NUMBER: 936

COMPOUND: Cc1ccc(S(=O)(=O)N2CCCC2C(=O)Nc2ccc(Br)cc2)cc1 (centres undefined)
OUTPUT_UNIT: s
RECORDED_NUMBER: 1020

COMPOUND: Cc1ccc(-c2nc3sc(N4CCCCC4)nn3c2NC(=O)C2CC2)cc1
OUTPUT_UNIT: s
RECORDED_NUMBER: 885

COMPOUND: COc1cc(C(=O)N2CCC(CC(=O)NC3CC3)CC2)cc(OC)c1OC
OUTPUT_UNIT: s
RECORDED_NUMBER: 647

COMPOUND: COc1ccc2[nH]c(-c3ccccc3)c(CCNC(C)=O)c2c1
OUTPUT_UNIT: s
RECORDED_NUMBER: 832

COMPOUND: CCOc1ccc2ncc(C(=O)c3ccc(OC)cc3)c(N3CCN(CC)CC3)c2c1
OUTPUT_UNIT: s
RECORDED_NUMBER: 600

COMPOUND: O=C(c1ccco1)N1CCN(S(=O)(=O)c2ccc(-c3cc(C(F)(F)F)on3)o2)CC1
OUTPUT_UNIT: s
RECORDED_NUMBER: 951

COMPOUND: O=C(NCCc1csc(-c2ccccc2)n1)C1CCN(C(=O)c2ccc(F)c(F)c2)CC1
OUTPUT_UNIT: s
RECORDED_NUMBER: 816

COMPOUND: CC(C)CN1C(=O)c2cccn2CC1CNC(=O)c1ccco1 (centres undefined)
OUTPUT_UNIT: s
RECORDED_NUMBER: 672

COMPOUND: CCN1C(=O)COc2ccc(-c3noc(-c4ccc(CS(=O)(=O)c5ccccc5)cc4)n3)cc21
OUTPUT_UNIT: s
RECORDED_NUMBER: 1060

COMPOUND: COc1cc(NC(=O)C2CCCN(c3nc4ccccc4nc3OC)C2)c(OC)cc1Cl (centres undefined)
OUTPUT_UNIT: s
RECORDED_NUMBER: 1290

COMPOUND: Cc1ccc(C)c(-n2ccn(Cc3nc(-c4ccccc4C)no3)c(=O)c2=O)c1
OUTPUT_UNIT: s
RECORDED_NUMBER: 953

COMPOUND: Cn1cc(S(=O)(=O)N2CCCCC2)cc1C(=O)N1CCc2ccccc2C1
OUTPUT_UNIT: s
RECORDED_NUMBER: 938

COMPOUND: Cc1cccc(-c2nnc(Cc3nc(-c4ccc5c(c4)OCO5)no3)o2)c1
OUTPUT_UNIT: s
RECORDED_NUMBER: 1010

COMPOUND: Cc1c(Cl)cccc1NC(=O)Cn1nc2c3cc(F)ccc3ncn2c1=O
OUTPUT_UNIT: s
RECORDED_NUMBER: 677

COMPOUND: Cc1cc(OCC(=O)N2CCC(C)CC2)nc(-c2ccc(F)cc2)n1
OUTPUT_UNIT: s
RECORDED_NUMBER: 1040

COMPOUND: CCS(=O)(=O)N1CCCc2cc(C(=O)NCCC(C)C)ccc21
OUTPUT_UNIT: s
RECORDED_NUMBER: 884

COMPOUND: O=C(Nc1cccc(F)c1)N1CCC(N2CCN(Cc3ccccc3)C2=O)CC1
OUTPUT_UNIT: s
RECORDED_NUMBER: 827

COMPOUND: COCCCNC(=O)C1CCCN(S(=O)(=O)c2ccc(OC)c(C)c2)C1 (centres undefined)
OUTPUT_UNIT: s
RECORDED_NUMBER: 768

COMPOUND: CC(=O)c1cccc(C(=O)N2CCC3(CC2)N=C(c2ccc(C)cc2)NO3)c1
OUTPUT_UNIT: s
RECORDED_NUMBER: 772

COMPOUND: O=C(NC1CCCC1)N1CCN(c2ncccc2-c2nnc(C3CC3)o2)CC1
OUTPUT_UNIT: s
RECORDED_NUMBER: 719

COMPOUND: Clc1ccc(-c2noc(Cc3nc(-c4ccc5c(c4)OCO5)cs3)n2)cc1
OUTPUT_UNIT: s
RECORDED_NUMBER: 1260

COMPOUND: O=C1CC(NC(=O)c2cnn(-c3ccccc3)n2)CN1 (centres undefined)
OUTPUT_UNIT: s
RECORDED_NUMBER: 603

COMPOUND: COc1ccc(CN2CCOC2=O)cc1OC
OUTPUT_UNIT: s
RECORDED_NUMBER: 649

COMPOUND: CCC(=O)Nc1cc2c(cc1Sc1ccc(OC)cc1)n(C)c(=O)n2C
OUTPUT_UNIT: s
RECORDED_NUMBER: 974

COMPOUND: O=C(CSCc1ccccc1)Nc1nnc(-c2ccsc2)o1
OUTPUT_UNIT: s
RECORDED_NUMBER: 757

###

# maps each entry to its RP-LC retention time
- TEST_DETAILS: gradient 5% acetonitrile 3 min, to 50% in 2 min, to 85% in 15 min, held 3 min, 100 µL/min
- MEASUREMENT_SETUP: column: Zorbax Extend-C18 2.1 x 50 mm; eluents: water / acetonitrile, 0.1% formic acid
PROPERTY_LABEL: RP-LC retention time (s)

SMILES_RECORD: CCCN1C(=O)COc2ccc(-c3csc(NC(=O)C(C)(C)C)n3)cc21
RECORDED_NUMBER: 1010

SMILES_RECORD: Cn1nc(C(=O)N2C[C@@H](Oc3ccccc3)C[C@H]2C(=O)NC2CC2)c2ccccc21
RECORDED_NUMBER: 802

SMILES_RECORD: COc1cc(N)c(Cl)cc1C(=O)OCCCN1CCCCC1
RECORDED_NUMBER: 655

SMILES_RECORD: O=C(C1CCN(c2cnc3nccnc3c2)CC1)N1CCN(c2ccccc2F)CC1
RECORDED_NUMBER: 747

SMILES_RECORD: COc1ccc(-c2ccnn2-c2ccc(SCC(=O)Nc3cc(C)ccc3C)nn2)cc1
RECORDED_NUMBER: 1140

SMILES_RECORD: CCS(=O)(=O)N1CCc2c(c(CN(C(=O)c3ccccc3F)c3ccccc3)nn2C)C1
RECORDED_NUMBER: 774

SMILES_RECORD: COc1ccc(Br)c(C(=O)Nc2ccc3c(c2)C(=O)NCC3)c1
RECORDED_NUMBER: 672

SMILES_RECORD: O=C(Nc1ccc(-n2cnc(C(=O)N3CCCCCC3)c2)nc1)C1CC1
RECORDED_NUMBER: 698

SMILES_RECORD: COc1ccc(-c2nc3cnccn3c2Nc2ccc(C(C)C)cc2)cc1OC
RECORDED_NUMBER: 936
